Provenance of the data: patent US20190127480A1

target: T1, cynomolgus CD3 on cynomolgus T cells (cynomolgus, UniProt Q95LI5 22-198; Q95LI8 22-171); assay: FACS on cynomolgus T cells
T1 construct: whole, on cells; also called Cyno T-cells; monkey T-cells
T1 sequence (Q95LI5 22-198, form in doubt, chain 1 of 2): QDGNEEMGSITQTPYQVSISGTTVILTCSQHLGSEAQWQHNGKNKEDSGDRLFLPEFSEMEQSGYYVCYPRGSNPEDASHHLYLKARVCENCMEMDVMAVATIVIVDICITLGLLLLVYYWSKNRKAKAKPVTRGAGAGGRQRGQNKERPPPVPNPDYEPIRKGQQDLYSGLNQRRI
T1 sequence (Q95LI8 22-171, form in doubt, chain 2 of 2): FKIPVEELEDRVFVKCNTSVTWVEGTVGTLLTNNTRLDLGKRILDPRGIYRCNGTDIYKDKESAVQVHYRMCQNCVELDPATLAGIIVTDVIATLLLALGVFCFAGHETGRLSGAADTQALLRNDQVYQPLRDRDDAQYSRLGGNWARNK
Response field label takes 1.0 when EC50 is strictly below 900 nM and 0.0 in all other cases.

Ask: Below 900 nM on EC50? Entry BSPSMA/CD3-1300 (bispecific antibody, IgG4, V domains shown, modified (chimeric) IgG4 Fc domain; also called PSMA-VH-11810 x CD3-VH-G13) VH 1: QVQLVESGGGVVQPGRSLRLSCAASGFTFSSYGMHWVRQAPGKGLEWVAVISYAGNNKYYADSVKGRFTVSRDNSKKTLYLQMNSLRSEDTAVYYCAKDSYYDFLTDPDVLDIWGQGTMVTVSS VH 2: EVQLVESGGGLVQPGRSLRLSCAASGFTFDDYSMHWVRQAPGKGLEWVSGISWNSGSIGYADSVKGRFTISRDNAKNSLYLQMNSLRAEDTALYYCAKYGSGYGKFYYYGLDVWGQGTTVTVSS VL: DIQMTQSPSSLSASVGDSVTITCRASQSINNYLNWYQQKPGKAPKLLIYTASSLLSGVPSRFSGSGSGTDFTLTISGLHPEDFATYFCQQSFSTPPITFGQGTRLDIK
Result: 0.0

Ask: I'd appreciate it if you could check whether BSPSMA/CD3-005 (bispecific antibody, IgG4, V domains shown, modified (chimeric) IgG4 Fc domain; also called PSMA-VH-11810 x CD3-VH-G20) VH 1: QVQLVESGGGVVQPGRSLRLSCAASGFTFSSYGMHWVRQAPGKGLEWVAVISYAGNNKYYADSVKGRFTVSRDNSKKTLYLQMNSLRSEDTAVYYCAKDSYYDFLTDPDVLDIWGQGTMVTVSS VH 2: EVQLVESGGGLVQPGRSLRLSCAASGFTFDDYSMHWVRQAPGKGLEWVSGISWNSGSIGYADSVKGRFTISRDNAKNSLYLQMNSLRAEDTALYYCAKYGSGYGKFYYYGMDVWGQGTTVTVSS VL: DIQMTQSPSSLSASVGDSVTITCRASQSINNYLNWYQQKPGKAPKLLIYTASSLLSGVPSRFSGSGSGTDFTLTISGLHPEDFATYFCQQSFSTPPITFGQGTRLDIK has EC50 smaller than 900 nM.
Result: 0.0

Ask: Please state whether EC50 is below 900 nM for BSPSMA/CD3-1700 (bispecific antibody, IgG4, V domains shown, modified (chimeric) IgG4 Fc domain; also called PSMA-VH-11810 x CD3-VH-G17) VH 1: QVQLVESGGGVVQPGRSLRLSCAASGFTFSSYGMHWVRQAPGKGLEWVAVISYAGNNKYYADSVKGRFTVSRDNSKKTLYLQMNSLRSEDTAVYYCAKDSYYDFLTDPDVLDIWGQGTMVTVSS VH 2: EVQLVESGGGLVQPGRSLRLSCAASGFTFDDYSMHWVRQAPGKGLEWVSGISWNSGSKGYADSVKGRFTISRDNAKNSLYLQMNSLRAEDTALYYCAKYGSGYGKFYYYGMDVWGQGTTVTVSS VL: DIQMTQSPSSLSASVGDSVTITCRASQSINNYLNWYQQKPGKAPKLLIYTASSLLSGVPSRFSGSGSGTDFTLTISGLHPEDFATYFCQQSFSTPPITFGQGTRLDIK
Result: 0.0

Ask: Please let me know if BSPSMA/CD3-1400 (bispecific antibody, IgG4, V domains shown, modified (chimeric) IgG4 Fc domain; also called PSMA-VH-11810 x CD3-VH-G14) VH 1: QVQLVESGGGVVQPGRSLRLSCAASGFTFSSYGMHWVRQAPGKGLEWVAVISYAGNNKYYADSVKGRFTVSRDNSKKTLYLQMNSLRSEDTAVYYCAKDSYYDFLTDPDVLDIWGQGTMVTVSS VH 2: EVQLVESGGGLVQPGRSLRLSCAASGFTFDDYSMHWVRQAPGKGLEWVSGISWNSGSIGYADSVKGRFTISRDNAKNSLYLQMNSLRAEDTALYYCAKYGSGYGKFYHYGMDVWGQGTTVTVSS VL: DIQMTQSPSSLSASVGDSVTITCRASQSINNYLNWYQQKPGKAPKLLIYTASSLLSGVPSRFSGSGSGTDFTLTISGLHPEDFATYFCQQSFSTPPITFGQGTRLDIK shows EC50 below 900 nM.
Result: 1.0
